# measurementDescription: Partition coefficient, log P of the compound
# Assay type: physicochemical
# conditionLabel: octanol/water
The following compounds are listed with their measured logP values.
Provide a numeric answer; units are not to be included.

compound=CCN(CC)C(=O)[C@]1(c2ccccc2)C[C@H]1CN result=1.6
compound=C#CCN(CC#C)C(=O)[C@@]1(c2cccs2)C[C@H]1CN result=1.5
compound=C#CCN(CC)C(=O)[C@@]1(c2cccs2)C[C@H]1CN result=1.6

(Q) # input compound: CCN(CC)C(=O)C1(c2ccccc2)CC1CN (stereo not drawn) ; wanted: its logP
(A) 1.7

(Q) # input compound: C=CCN(Cc1nccs1)C(=O)[C@@]1(c2cccs2)C[C@H]1CN ; wanted: its logP
(A) 1.6
